Data provenance is paper PMC11477134.

target: hBACE1 (Homo sapiens); construct: purchased Invitrogen (Pan Vera, Madison, WI, USA); assay: hBACE1 inhibitory activity (FRET assay) and enzyme kinetics; assay type: biochemical
Sequence (P56817 46-501): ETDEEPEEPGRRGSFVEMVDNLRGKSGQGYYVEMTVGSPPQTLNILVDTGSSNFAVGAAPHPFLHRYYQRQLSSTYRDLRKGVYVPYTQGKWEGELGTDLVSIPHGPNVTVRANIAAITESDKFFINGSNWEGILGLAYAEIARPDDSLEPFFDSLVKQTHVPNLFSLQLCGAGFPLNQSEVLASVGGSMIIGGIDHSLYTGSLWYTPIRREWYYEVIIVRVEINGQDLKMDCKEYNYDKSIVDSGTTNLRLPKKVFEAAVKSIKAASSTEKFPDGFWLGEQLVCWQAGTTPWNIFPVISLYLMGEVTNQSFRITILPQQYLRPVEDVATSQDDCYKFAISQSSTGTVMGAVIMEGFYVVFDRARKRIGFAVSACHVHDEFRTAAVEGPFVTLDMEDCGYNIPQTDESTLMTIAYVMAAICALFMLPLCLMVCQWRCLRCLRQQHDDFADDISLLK
observable: IC50 (µM)
Just the number in µM, nothing appended.

Request: For C=CCc1ccc(O)c(-c2ccc(O)c(CC=C)c2)c1 [Honokiol (39), 3,5′-diallyl-4,2′-dihydroxybiphenyl] , what is its reported IC50?
Response: 20.6
